Values from ChEMBL document CHEMBL1123413

Organism: Rattus norvegicus
Assay: Inhibition of conditioned avoidance response (CAR)
Format: functional
observationType: ED50

O=C1CC2(CCCC2)CC(=O)N1CCCCN1CCN(c2nc3ccccc3s2)CC1	> 100 mg/kg
CN1CCN(CCCN2c3ccccc3Sc3ccc(C(F)(F)F)cc32)CC1	6.9 mg/kg
O=C1CC2(CCCC2)CC(=O)N1CCCCN1CCN(c2noc3ccccc23)CC1	10.6 mg/kg

----------
// ED50 lookup, one value per entry
Species: Rattus norvegicus
Assay: Inhibition of conditioned avoidance response (CAR)
Assay type: functional
observationType: ED50 (mg/kg)

O=C1CSC(=O)N1CCCCN1CCN(c2noc3ccccc23)CC1	8.3
OC(CCCN1CCN(c2noc3ccccc23)CC1)c1ccc(F)cc1 (stereo unspecified)	1
O=C1SC2(CCCC2)C(=O)N1CCCCN1CCN(c2noc3ccccc23)CC1	8.1
